- procedure.details: Oral bioavailability in monkey at 1 mg/kg, po
- Format: ADME, organism-based, Macaca mulatta
- condition.notes: rhesus monkey, in vivo
measured.parameter: bioavailability

Please report the measured bioavailability for `Cc1coc2ccc(N3C[C@@]4(CN5CCC4CC5)OC3=O)cc12`
25.8%

---

- procedure.details: Cmax in monkey at 3 mg/kg, iv
- Format: ADME, organism-based, Macaca mulatta
- Design: dose 3 mg/kg, route intravenous
- condition.notes: rhesus monkey, in vivo
measured.parameter: Cmax

Please report the measured Cmax for `Cc1coc2ccc(N3C[C@@]4(CN5CCC4CC5)OC3=O)cc12`
288 ng/mL

---

- tgt: Serotonin 3 (5-HT3) receptor
- procedure.details: Binding affinity to 5HT3 receptor
measured.parameter: IC50 (nM)
Write the number in nM without appending the unit.

Using Serotonin 3 (5-HT3) receptor as the test system, report measured IC50 of `Cc1coc2ccc(N3C[C@@]4(CN5CCC4CC5)OC3=O)cc12` .
10

---

- procedure.details: Half life in rat at 30 mg/kg, po
- Type: ADME, organism-based
- Set-up: dose 30 mg/kg, route oral
- condition.notes: in vivo
measured.parameter: half-life (h)
Write the number in h without appending the unit.

Please report the measured half-life for `Cc1coc2ccc(N3C[C@@]4(CN5CCC4CC5)OC3=O)cc12`
1.7

---

- procedure.details: Tmax in monkey at 10 mg/kg, po
- Type: ADME, organism-based, Macaca mulatta
- Set-up: dose 10 mg/kg, route oral
- condition.notes: rhesus monkey, in vivo
measured.parameter: Tmax
Please append the unit to your numeric answer.

Please report the measured Tmax for `Cc1coc2ccc(N3C[C@@]4(CN5CCC4CC5)OC3=O)cc12`
2.3 h

---

- procedure.details: Cmax in monkey at 10 mg/kg, po
- Type: ADME, organism-based, Macaca mulatta
- Parameters: dose 10 mg/kg, route oral
- condition.notes: rhesus monkey, in vivo
measured.parameter: Cmax (ng/mL)
Write the number in ng/mL without appending the unit.

Please report the measured Cmax for `Cc1coc2ccc(N3C[C@@]4(CN5CCC4CC5)OC3=O)cc12`
384

---

- procedure.details: Tmax in monkey at 3 mg/kg, po
- Type: ADME, organism-based, Macaca mulatta
- Design: dose 3 mg/kg, route oral
- condition.notes: rhesus monkey, in vivo
measured.parameter: Tmax (h)
Write the number in h without appending the unit.

Please report the measured Tmax for `Cc1coc2ccc(N3C[C@@]4(CN5CCC4CC5)OC3=O)cc12`
3.3

---

Catalogue of Ki readings, one per entry.
- tgt: Neuronal acetylcholine receptor subunit alpha-7 (Rattus norvegicus, UniProt Q05941)
- Sequence (Q05941 whole entry): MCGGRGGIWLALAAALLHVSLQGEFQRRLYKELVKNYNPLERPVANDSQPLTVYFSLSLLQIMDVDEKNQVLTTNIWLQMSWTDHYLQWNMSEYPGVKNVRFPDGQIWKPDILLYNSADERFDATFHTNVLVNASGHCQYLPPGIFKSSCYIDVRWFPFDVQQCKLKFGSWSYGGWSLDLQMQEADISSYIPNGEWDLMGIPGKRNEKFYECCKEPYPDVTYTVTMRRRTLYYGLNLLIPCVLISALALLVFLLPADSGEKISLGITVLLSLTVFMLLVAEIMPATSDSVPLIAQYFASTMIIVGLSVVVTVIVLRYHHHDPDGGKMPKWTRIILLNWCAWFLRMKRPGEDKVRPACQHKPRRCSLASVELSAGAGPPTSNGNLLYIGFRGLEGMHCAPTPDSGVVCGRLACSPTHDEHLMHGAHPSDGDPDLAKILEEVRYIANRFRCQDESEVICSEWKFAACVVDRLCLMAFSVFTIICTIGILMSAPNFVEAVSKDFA
- procedure.details: Displacement of [125I]alpha-BTX from alpha-7 nAChR in rat hippocampus membrane
Write the number in nM without appending the unit.

Known results for compounds:
Cc1oc2ccc(N3C[C@@]4(CN5CCC4CC5)OC3=O)cc2c1Br ... 11
CCc1coc2ccc(N3C[C@@]4(CN5CCC4CC5)OC3=O)cc12 ... 8

Turning now to a further compound:
Please report the measured Ki for `CCc1c(C)oc2ccc(N3C[C@@]4(CN5CCC4CC5)OC3=O)cc12`
15
